# Tested on: PC3
# assay: WST-1 cell growth assay (Table 3)
# Type: cell-based
# assayConditions: Homo sapiens, PC-3, 72 h; PC3 prostate adenocarcinoma, 3 days
# Procedure: Thirteen C6 substituted nucleoside derivatives were tested against seventeen cancer cell lines in order to understand their anticancer activity potential. Cell growth was measured in 96 well plates (6 replicates per dose) in which 10^4 cells were seeded for 3 days with a range of concentrations of compound Ic and Id using the Roche WST-1 assay (Ishiyama M et al (1995) In Vitro Toxicology 8, 187-189) following manufactures directions.
Recorded measurements of IC50, one per entry

chemSmiles: [N-]=[N+]=Nc1cc(=O)[nH]c(=O)n1[C@@H]1O[C@H](CO)[C@@H](O)[C@H]1O
observationType: IC50
recordedResult: > 4 µM

Identify measured IC50 corresponding to "Nc1cc(=O)[nH]c(=O)n1[C@@H]1O[C@H](CO)[C@@H](O)[C@H]1O"
> 4 µM

====

# Test system: OCI-Ly-7
# assay: In vitro cell proliferation assay (WST.1, Table 5)
# Assay type: cell-based
# assayConditions: Homo sapiens, OCI-Ly7, 72 h; OCI-Ly-7, day 3
observationType: pIC50
Remember the convention: pIC50 equals -log10 of concentration in molar.

molecule: CC(=O)OCC1OC(n2c(I)cc(=O)[nH]c2=O)C(O)C1O (centres unmarked)
recordedResult: 4.44
//
molecule: Nc1c(F)c(=O)[nH]c(=O)n1[C@@H]1O[C@H](CO)[C@@H](O)[C@H]1O
recordedResult: 5.89

Identify measured pIC50 corresponding to O=Cc1c(F)c(=O)[nH]c(=O)n1C1OC(CO)C(O)C1O (centres unmarked)
6.22

====

# Tested on: OCVR4
# assay: In vitro cell proliferation assay (WST.1, Table 5)
# Format: cell-based
# assayConditions: Homo sapiens, 72 h; OCVR4, day 3
observationType: IC50

compound: CNc1cc(=O)[nH]c(=O)n1C1OC(CO)C(O)C1O (stereo not drawn)
systemName: OCVR4
IC50: > 50 µM
//
compound: Cc1cc(=O)[nH]c(=O)n1C1OC(CO)C(O)C1O (stereo not drawn)
systemName: OCVR4
IC50: > 50 µM

Identify measured IC50 corresponding to CC(=O)OCC1OC(n2c(I)cc(=O)[nH]c2=O)C(O)C1O (stereo not drawn)
> 50 µM

====

# Tested on: OCI-My-2
# assay: In vitro cell proliferation assay (WST.1, Table 5)
# Type: cell-based
# assayConditions: Homo sapiens, 72 h; OCI-My-2, day 3
Recorded measurements of IC50, one per entry
Record the value in µM, omitting the unit from your answer.

molecule: O=c1cc(I)n([C@@H]2O[C@H](CO)C(O)C2O)c(=O)[nH]1 (some centres unmarked)
readoutUnits: µM
IC50: 27.8

Consider now this further molecule.
Identify measured IC50 corresponding to "Nc1c(F)c(=O)[nH]c(=O)n1[C@@H]1O[C@H](CO)[C@@H](O)[C@H]1O"
0.9

====

# Tested on: COLO205
# assay: In vitro cell proliferation assay (WST.1, Table 5)
# Format: cell-based
# assayConditions: Homo sapiens, COLO 205, 72 h; COLO205, day 3
observationType: IC50

The cases that follow already have their IC50 on record.
compound: Nc1c(F)c(=O)[nH]c(=O)n1[C@@H]1O[C@H](CO)[C@@H](O)[C@H]1O [In, 5-Fluoro-6-amino uridine]
IC50: 3.3 µM
//
compound: Cc1cc(=O)[nH]c(=O)n1C1OC(CO)C(O)C1O (stereo not shown)
IC50: > 50 µM
//
compound: CC(=O)OCC1OC(n2c(I)cc(=O)[nH]c2=O)C(O)C1O (stereo not shown)
IC50: > 50 µM

Consider now this further compound.
Identify measured IC50 corresponding to O=c1[nH]c(=O)n([C@@H]2O[C@H](CO)C(O)C2O)c(I)c1Br (stereo partly shown)
> 50 µM
